From: patent US4690949A

Assay: Acute toxicity LD50 in mice
Settings: mouse, in vivo, ip
parameter: LD50

Sample N[C@H](C(=O)O)[C@H](O)c1ccc(O)c(O)c1 [L-Threo-DOPS] ; LD50 observed: ~10000 mg/kg

Consider N[C@H](C(=O)O)[C@H](O)c1ccc(O)c(O)c1 (relative stereo) [DL-Threo-DOPS] . Its measured LD50 is ~10000 mg/kg

---

Test: Acute toxicity LD50 in mice
Conditions: mouse, in vivo, po
Would you mind telling me the reported LD50 of each entry?

response.value for N[C@H](C(=O)O)[C@H](O)c1ccc(O)c(O)c1 [L-Threo-DOPS] (field: LD50) = ≥ 10000 mg/kg

Value of measured LD50 for the entry N[C@H](C(=O)O)[C@H](O)c1ccc(O)c(O)c1 (relative stereo) [DL-Threo-DOPS] : ≥ 10000 mg/kg
